Parameter: OD450 nm. Scope: all listed entries.
- TARGET OF ASSAY: BSA (UniProt P02769)
- Sequence (P02769 25-607 limits assumed): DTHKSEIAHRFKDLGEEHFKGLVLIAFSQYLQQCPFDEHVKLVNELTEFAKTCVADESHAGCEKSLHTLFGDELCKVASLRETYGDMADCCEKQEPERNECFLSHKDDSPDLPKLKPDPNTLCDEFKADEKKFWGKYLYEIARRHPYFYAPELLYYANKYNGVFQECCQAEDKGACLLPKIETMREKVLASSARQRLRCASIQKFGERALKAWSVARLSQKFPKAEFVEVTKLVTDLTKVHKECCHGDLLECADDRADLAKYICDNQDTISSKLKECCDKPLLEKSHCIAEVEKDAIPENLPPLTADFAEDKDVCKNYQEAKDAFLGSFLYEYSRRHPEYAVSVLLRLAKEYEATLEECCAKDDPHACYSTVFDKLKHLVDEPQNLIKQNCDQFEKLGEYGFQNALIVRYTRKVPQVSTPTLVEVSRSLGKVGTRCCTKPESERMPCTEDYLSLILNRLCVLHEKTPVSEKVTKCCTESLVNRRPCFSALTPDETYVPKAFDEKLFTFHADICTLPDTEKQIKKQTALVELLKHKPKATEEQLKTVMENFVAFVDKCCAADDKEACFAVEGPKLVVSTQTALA
- ASSAY OVERVIEW: ELISA on coated BSA control, anti-myc detection; 20ng antibody added

# BINDER, OD450 nm (OD450)
rows = [
    ("anti-CD79B single-domain antibody JYB10 (VHH, Alpaca VHH from a phage library; ELISA detected with an anti-myc antibody; a myc tag is not described; not shown: His-tag protein at the C-terminal end) VHH: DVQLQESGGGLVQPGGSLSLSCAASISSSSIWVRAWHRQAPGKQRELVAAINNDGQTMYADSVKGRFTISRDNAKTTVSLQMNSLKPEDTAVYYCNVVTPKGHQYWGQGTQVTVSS", 0.0474),
    ("anti-CD79B single-domain antibody JYB8 (VHH, not shown: small tags and cut ends) VHH: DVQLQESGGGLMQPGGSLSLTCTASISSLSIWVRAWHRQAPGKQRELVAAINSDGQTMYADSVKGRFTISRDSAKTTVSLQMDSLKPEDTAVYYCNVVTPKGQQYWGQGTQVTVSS", 0.0554),
]
